B1: TPR 5TU (parent)
chain: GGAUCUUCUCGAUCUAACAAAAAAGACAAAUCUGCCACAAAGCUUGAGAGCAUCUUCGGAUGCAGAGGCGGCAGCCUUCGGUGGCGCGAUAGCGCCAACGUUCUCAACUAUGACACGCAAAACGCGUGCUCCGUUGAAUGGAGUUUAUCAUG

- Variants of: B1
- Experimental protocol: polymerase ribozyme fitness, log enrichment relative to wild type (log ratio); higher = more active; in vitro selection for triplet polymerase activity
This sample holds only a part of the variants without activity.
Recorded metric: polymerase ribozyme fitness (log ratio)
Form field (numeric): enter value without unit.

A47C U127C: -1.6
A47C G83U: -1.01
G86U A142G: -2.35

# input variant: C54A C87U ; wanted: its polymerase ribozyme fitness (log ratio)
-3.48

# input variant: C8U G81C ; wanted: its polymerase ribozyme fitness (log ratio)
-3.94

# input variant: C18G A20C G34U U55G C118U C123U ; wanted: its polymerase ribozyme fitness (log ratio)
-4.18

# input variant: A3U U82G U104G ; wanted: its polymerase ribozyme fitness (log ratio)
-1.04
